Cited source: PubChem BioAssay (NCI)

# Tested on: SK-MEL-5 melanoma
# test-protocol: NCI tumour cell line growth inhibition, 48 h
Entries and their TGI values follow.

Examples from the recorded data:
{"columns": ["compound", "TGI"],
 "data": [
  ["O=C1OC(c2ccccc2)=N/C1=C\\c1cccc(F)c1", "> 100 µM"],
  ["O=C1Oc2cc3c(c4cccc1c24)O[C@H](c1ccccc1)[C@@H](c1ccccc1)[C@@H]3c1ccc(Cl)cc1", "> 100 µM"]
]}

Moving on to another compound below.
**Query** Annotate the compound `COc1cc2c3c(n(CCCN=[N+]=[N-])c(=O)c2cc1OC)-c1ccc(N(C)C)cc1C3=O` with its measured TGI.
**Result** > 100 µM
